Record: MIC reported on Enterococcus faecalis (VRE).
parameter: MIC (µg/mL)

| compound | target | measured |
| --- | --- | --- |
| CC[C@H](C)[C@@H]1NC(=O)[C@@H](Cc2c[nH]c3ccccc23)NC(=O)[C@@H](CCC(N)=O)NC(=O)[C@H](CCC(=O)O)NC(=O)[C@@H](CCCNC(=N)N)NC(=O)[C@H](CC(C)C)NC(=O)[C@@H](Cc2ccccc2)NC(=O)CNC(=O)[C@H](CO)NC(=O)[C@@H](CCCNC(=N)N)NC(=O)[C@@H](NC(=O)CC(O)CCCC(C)C)[C@@H](C)OC(=O)[C@H]([C@@H](C)O)NC1=O (single isomer, unassigned) [Peak P3] | Enterococcus faecalis (VRE) | 50 |
| CC[C@H](C)[C@@H]1NC(=O)[C@@H](Cc2c[nH]c3ccccc23)NC(=O)[C@@H](CCC(N)=O)NC(=O)[C@H](CCC(=O)O)NC(=O)[C@@H](CCCNC(=N)N)NC(=O)[C@H](CC(C)C)NC(=O)[C@@H](Cc2ccccc2)N(C)C(=O)CNC(=O)[C@H](CO)NC(=O)[C@@H](CCCNC(=N)N)NC(=O)[C@@H](NC(=O)CC(O)CCC(C)C)[C@@H](C)OC(=O)[C@H]([C@@H](C)O)NC1=O (single isomer, unassigned) [Peak P7] | Enterococcus faecalis (VRE) | 25 |

----------
Record: MIC reported on Staphylococcus aureus (MRSA4).

| molecule | MIC [µg/mL] |
| --- | --- |
| CC[C@H](C)[C@@H]1NC(=O)[C@@H](Cc2c[nH]c3ccccc23)NC(=O)[C@@H](CCC(N)=O)NC(=O)[C@H](CCC(=O)O)NC(=O)[C@@H](CCCNC(=N)N)NC(=O)[C@H](CC(C)C)NC(=O)[C@@H](Cc2ccccc2)NC(=O)CNC(=O)[C@H](CO)NC(=O)[C@@H](CCCNC(=N)N)NC(=O)[C@@H](NC(=O)CC(O)CCCC(C)C)[C@@H](C)OC(=O)[C@H]([C@@H](C)O)NC1=O (single isomer, unassigned) [Peak P4] | 12.5 |
| CC[C@H](C)[C@@H]1NC(=O)[C@@H](Cc2c[nH]c3ccccc23)NC(=O)[C@@H](CCC(N)=O)NC(=O)[C@H](CCC(=O)O)NC(=O)[C@@H](CCCNC(=N)N)NC(=O)[C@H](CC(C)C)NC(=O)[C@@H](Cc2ccccc2)N(C)C(=O)CNC(=O)[C@H](CO)NC(=O)[C@@H](CCCNC(=N)N)NC(=O)[C@@H](NC(=O)CC(O)CCC(C)C)[C@@H](C)OC(=O)[C@H]([C@@H](C)O)NC1=O (single isomer, unassigned) [Peak P7] | 12.5 |
| CC[C@H](C)[C@@H]1NC(=O)[C@@H](Cc2c[nH]c3ccccc23)NC(=O)[C@@H](CCC(N)=O)NC(=O)[C@H](CCC(=O)O)NC(=O)[C@@H](CCCNC(=N)N)NC(=O)[C@H](CC(C)C)NC(=O)[C@@H](Cc2ccccc2)NC(=O)CNC(=O)[C@H](CO)NC(=O)[C@@H](CCCNC(=N)N)NC(=O)[C@@H](NC(=O)CC(O)CCCC(C)C)[C@@H](C)OC(=O)[C@H]([C@@H](C)O)NC1=O (single isomer, unassigned) [Peak P3] | 25 |
